Biological target: Eu^3+-labeled P2C/C38S/C280S p66/p66 RT (Human immunodeficiency virus type 1 group M subtype B, UniProt P04585, C625S/C867S/P588C)
Experiment: Inhibition of Eu3+-labeled P2C/C38S/C280S p66/p66 RT by HIV RT inhibitors
Details: P2C/C38S/C280S p66/p66 RT alkylated with Eu-N1-iodoacetamido chelate

compound	IC50, nM
CCn1c(=O)c(C)cn([C@@H]2O[C@H](CO[Si](C)(C)C(C)(C)C)C3(OS(=O)(=O)C=C3N)[C@H]2O[Si](C)(C)C(C)(C)C)c1=O (stereo partly shown)	3000

All figures here come from patent US6811970B2.
